Below: a set of entries, each annotated with reported cell viability.
- Tested on: NOMO1
- assay-summary: cell viability relative to DMSO control; higher = less cytotoxic
- condition-info: RPMI 5 mM glucose + 10% dialyzed FBS; 48 h; 46.1 µM

{"columns": ["smiles-code", "cell viability / %"],
 "data": [
  ["COc1cc(NCc2ccc3nc(N)nc(N)c3c2C)cc(OC)c1OC", 16.6],
  ["CN1C(=O)/C(=C(NC2=CC=C(I)C=C2F)\\C3=C1\\N=C/N(C[C@@H](O)CO)C3=O)F", 29.5],
  ["C[C@H](NC(=O)Cc1cc(F)cc(F)c1)C(=O)N[C@H](C(=O)OC(C)(C)C)c1ccccc1", 82.8],
  ["O=C(O)c1cc(O)c2c(c1)C(=O)c1cccc(O)c1C2=O", 96.2],
  ["C/C1=C2/[N]3[Co+]456([OH])<-[N]7=C1[C@@H](CCC(N)=O)C(C)(C)/C7=C/C1=[N]->4C(=C(/C)C4=[N]->5[C@@](C)([C@H]3[C@H](CC(N)=O)[C@@]2(C)CCC(=O)NC[C@@H](C)OP(=O)([O-])O[C@H]2[C@@H](O)[C@@H](n3c[n]->6c5cc(C)c(C)cc53)O[C@@H]2CO)[C@@](C)(CC(N)=O)[C@@H]4CCC(N)=O)/[C@@](C)(CC(N)=O)[C@@H]1CCC(N)=O", 72.7],
  ["CCCN[C@H]1CCc2nc(N)sc2C1", 82.4]
]}

* * *

- Test system: SEM cells
- assay-summary: cell viability relative to DMSO control; higher = less cytotoxic
- condition-info: RPMI 5 mM glucose + 10% FBS; 48 h; 0.000781 µM
reported-endpoint: cell viability (%)

{"columns": ["compound", "unit-abbreviation", "measured-number"],
 "data": [
  ["CN(C)c1nc(Cc2ccc(NC(=O)c3ccc(C(F)(F)F)cc3)cc2)nc(N(C)C)c1CC(=O)O", "%", 113],
  ["CC1(C)CC\\C2=C(/O1)C3=C(C=CC=C3)C(=O)C2=O", "%", 127],
  ["CCCOc1ccc(C(=O)OCCN(CC)CC)cc1N", "%", 94.6],
  ["NC1=NC(=O)N2CC12 (stereo not given)", "%", 106],
  ["CO[C@H]1/C=C/O[C@@]2(C)Oc3c(C)c(O)c4c(c3C2=O)C2=NC3(CCN(CC(C)C)CC3)NC2=C(NC(=O)/C(C)=C/C=C/[C@H](C)[C@H](O)[C@@H](C)[C@@H](O)[C@@H](C)[C@H](OC(C)=O)[C@@H]1C)C4=O", "%", 116],
  ["CNc1nc(-c2ccc3c(N)n[nH]c3c2)cc(N2C[C@@H](C(=O)NC3CCCCC3)CC[C@H]2C)n1", "%", 89.8],
  ["C[C@H](NC(=O)Cc1cc(F)cc(F)c1)C(=O)N[C@H](C(=O)OC(C)(C)C)c1ccccc1", "%", 103],
  ["COC1=CC=C(C=C1)/C2=C(O)/C(=O)C3=C(O)C=C(O)C(=C3O2)CC=C(C)C", "%", 86.7],
  ["COc1ccccc1[C@H](c1cccc2ccccc12)[C@@](C)(C#N)C(=O)N1CCC(c2cccc(C(F)(F)F)c2)CC1", "%", 92.3],
  ["CC(C)c1onc(-c2c(Cl)cccc2Cl)c1COc1ccc(/C=C/c2cccc(C(=O)O)c2)c(Cl)c1", "%", 117],
  ["C[C@]1(O)CC(C1)C2=NC(=C3[N]2C=CN=C3N)C4=CC5=C(C=C4)C=CC(=N5)C6=CC=CC=C6 (stereo not given)", "%", 95.8],
  ["Oc1ccc(OCc2ccccc2)cc1", "%", 103],
  ["Nc1n[nH]c2nnc(-c3c(-c4ccccc4)nn4ccccc34)cc12", "%", 113],
  ["Cc1cn2cc(C(=O)N(C)CCO)cc(N[C@@H]3CCOc4cccc(C)c43)c2n1", "%", 84.3],
  ["C[C@@H]1CC[C@@]2(CC[C@]3(C)\\C(=C/C[C@@H]4[C@@]5(C)CC[C@H](O)C(C)(C)[C@@H]5CC[C@@]34C)[C@@H]2[C@H]1C)C(O)=O", "%", 105],
  ["CCC(CCCC)COC(=O)C(\\C#N)=C(\\c1ccccc1)c2ccccc2 (stereo not given)", "%", 79.8],
  ["COc1cc(NCc2ccc3nc(N)nc(N)c3c2C)cc(OC)c1OC", "%", 69.1],
  ["CC(C)(N)c1ccc(-c2nc3ccccc3nc2-c2ccccc2)cc1", "%", 110],
  ["CCNC(=O)CCC/C=C\\C[C@@H]1[C@@H](/C=C/C(O)CCc2ccccc2)[C@@H](O)C[C@@H]1O (stereo not given in full)", "%", 95.4],
  ["CCOC(=O)c1c(C)n(C)c2ccc(O)cc12", "%", 115],
  ["C[C@@H]1[C@H]\\2[C@H](O)[C@H]3[C@H](N(C)C)\\C(=C(C(N)=O)/C(=O)[C@@]3(O)\\C(=C2C(=O)C4=C(O)C=CC=C14)O)O", "%", 115],
  ["Cc1ccc(C(=O)Nc2cccc(C(F)(F)F)c2)cc1Nc1nc(-c2cccnc2)nc2c1cnn2C", "%", 58.7],
  ["O=C(c1cncc(Br)c1)N1CCC(N2CCCC2)CC1", "%", 98.4],
  ["C=CC(=O)Nc1cc2c(Nc3ccc(F)c(Cl)c3)ncnc2cc1C#CC(C)(C)N1CCN(C)CC1", "%", 112],
  ["CCN(CC)CCNC(=O)c1c(C)[nH]c(/C=C2\\C(=O)Nc3ccc(F)cc32)c1C", "%", 72.7],
  ["COc1ccc(F)c(F)c1C(=O)c1cnc(NC2CCN([S+](C)(=O)[O-])CC2)nc1N", "%", 115],
  ["CO[C@@H](C(=O)N1Cc2[nH]nc(NC(=O)c3ccc(N4CCN(C)CC4)cc3)c2C1)c1ccccc1", "%", 107],
  ["CNC[C@H](O)[C@@H](O)[C@H](O)[C@H](O)CO", "%", 103],
  ["CCc1ccc(OCc2ccccc2C(=O)Nc2ccc3nc(C)cc(N)c3c2)cc1", "%", 98.5],
  ["CN(CCOc1ccc(CC2SC(=O)NC2=O)cc1)c1ccccn1 (stereo not given)", "%", 76.7]
]}

* * *

- Tested on: P12-Ichikawa
- assay-summary: cell viability relative to DMSO control; higher = less cytotoxic
- condition-info: RPMI 5 mM glucose + 10% FBS; 48 h; 0.0632 µM

{"columns": ["compound", "assay-target", "unit-abbreviation", "cell viability"],
 "data": [
  ["COc1ccc(/C=C\\c2cc(OC)c(OC)c(OC)c2)cc1NC(=O)[C@H](N)CO", "P12-Ichikawa", "%", 24.6],
  ["CC1(C)SCCN([S+](=O)([O-])c2ccc(OCC#CCO)cc2)[C@H]1C(=O)NO", "P12-Ichikawa", "%", 101],
  ["OC1=CC=C(C=C1)C/2=C/C3=C(OC2)C=C(O)C=C3", "P12-Ichikawa", "%", 126],
  ["OC[C@H]1O[C@H](C[C@@H]1O)N2/C=C(C(=O)NC2=O)/C(F)(F)F", "P12-Ichikawa", "%", 123],
  ["Cc1c(N)nc([C@H](CC(N)=O)NC[C@@H](N)C(N)=O)nc1C(=O)N[C@H](C(=O)N[C@@H](C)[C@H](O)[C@@H](C)C(=O)N[C@@H](C(=O)NCCc1nc(-c2nc(C(=O)NCCC[S+](C)C)cs2)cs1)[C@@H](C)O)C(O[C@H]1O[C@H](CO)[C@H](O)[C@@H](O)[C@H]1O[C@H]1O[C@H](CO)[C@@H](O)[C@H](OC(N)=O)[C@@H]1O)c1c[nH]cn1 (stereo partly specified)", "P12-Ichikawa", "%", 104],
  ["CC(C)C1CCC(C(=O)N[C@H](Cc2ccccc2)C(=O)O)CC1 (stereo partly specified)", "P12-Ichikawa", "%", 98.2],
  ["Nc1nc(F)nc2c1ncn2[C@@H]1O[C@H](COP(=O)(O)O)[C@@H](O)[C@@H]1O", "P12-Ichikawa", "%", 122],
  ["Oc1ccc(OCc2ccccc2)cc1", "P12-Ichikawa", "%", 106],
  ["NC(=O)c1cccc(-c2cc(Nc3ccc(OC(F)(F)F)cc3)ncn2)c1", "P12-Ichikawa", "%", 105],
  ["C[C@H](NC(=O)Cc1cc(F)cc(F)c1)C(=O)N[C@H](C(=O)OC(C)(C)C)c1ccccc1", "P12-Ichikawa", "%", 90.7],
  ["C=CC(=O)Nc1cc2c(Nc3ccc(F)c(Cl)c3)ncnc2cc1C#CC(C)(C)N1CCN(C)CC1", "P12-Ichikawa", "%", 112],
  ["CCn1nnc2c(N3CCOCC3)nc(-c3ccc(NC(=O)Nc4ccc(C(=O)N5CCN(C)CC5)cc4)cc3)nc21", "P12-Ichikawa", "%", 72.3],
  ["CCCOc1ccc(C(=O)OCCN(CC)CC)cc1N", "P12-Ichikawa", "%", 129],
  ["O=C(/C=C/c1ccc(/C=C/C(=O)Nc2ccc(C3=NCCN3)cc2)cc1)Nc1ccc(C2=NCCN2)cc1", "P12-Ichikawa", "%", 109],
  ["C=CC(=O)Nc1cccc(Sc2nc(Nc3ccc(N4CCN(C)CC4)cc3)ncc2Cl)c1", "P12-Ichikawa", "%", 116],
  ["CC(=O)OC[C@@H]1O[C@H]([C@H](OC(C)=O)[C@@H]1OC(C)=O)N2\\C=C/C(=O)NC2=O", "P12-Ichikawa", "%", 117]
]}
